Hey, just so you know, these numbers are from patent US8435978B2.

# assayTarget: human B1R receptor (Homo sapiens, UniProt P46663)
# Construct: host or cells: CHO K1 cells (Chinese hamster ovary), stably transfected
# Sequence (P46663 whole entry): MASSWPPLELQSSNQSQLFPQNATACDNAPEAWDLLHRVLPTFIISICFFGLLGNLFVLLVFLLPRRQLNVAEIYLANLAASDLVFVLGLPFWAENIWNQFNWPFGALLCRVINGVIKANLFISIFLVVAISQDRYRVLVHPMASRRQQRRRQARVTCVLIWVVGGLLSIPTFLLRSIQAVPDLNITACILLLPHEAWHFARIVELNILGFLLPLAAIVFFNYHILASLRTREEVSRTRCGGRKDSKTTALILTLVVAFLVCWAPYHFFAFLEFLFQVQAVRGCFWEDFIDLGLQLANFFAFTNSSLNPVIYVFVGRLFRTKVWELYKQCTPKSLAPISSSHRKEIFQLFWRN
# testMethodNotes: Functional study on the bradykinin receptor 1 (B1R), FLIPR Ca2+ assay, hB1R cells
# Format: cell-based
# experimentalSetup: CHO-K1, test substance 10 μM, agonist Lys-Des-Arg9-bradykinin 0.5 nM, % inhibition compared with the maximum achievable inhibition, read-out: B1R Antagonism, human [10 μM] % Inhibition
// reported inhibition at 10 µM for each item listed
measuredQuantity: inhibition at 10 µM

COc1cccc(N2CCN(C(=O)COCC3CCCN3S(=O)(=O)c3c(C)cc(OC)cc3C)CC2)c1 (stereo not drawn) | 104%
COc1cc(C)c(S(=O)(=O)N2CCCCC2COCC(=O)N2CCC(c3ccncc3)C2)c(C)c1 (stereo not drawn) | 99.9%
CN(C)CCN1CCN(C(=O)COCC2CCCN2S(=O)(=O)c2c(Cl)cccc2Cl)CC1 (stereo not drawn) | 105%
O=C(COCC1Cc2ccccc2CN1S(=O)(=O)c1ccc(Cl)c(Cl)c1)N1CCCC1CN1CCCCC1 (stereo not drawn) | 44.9%
O=C(COCC1CCCCN1S(=O)(=O)c1c(Cl)cccc1Cl)N1CCN(Cc2ccc(Cl)cc2)CC1 (stereo not drawn) | 102%
O=C(COCC1CCCCN1S(=O)(=O)c1c(Cl)cc(Cl)cc1Cl)NCc1ccc(N2CCOCC2)cc1 (stereo not drawn) | 27.5%
COc1cc(C)c(S(=O)(=O)N2CCCCC2COCC(=O)Nc2ccccc2N2CCN(C)CC2)c(C)c1 (stereo not drawn) | 28.4%
Cc1cc(C)c(S(=O)(=O)N2CCCCC2COCC(=O)NCC2CCCN(Cc3ccccc3)C2)c(C)c1 (stereo not drawn) | 99.1%
COc1cc(C)c(S(=O)(=O)N2CCCC2COCC(=O)N2CCN(C)CC2c2ccccc2)c(C)c1 (stereo not drawn) | 102%
COc1cc(C)c(S(=O)(=O)N2CCCCC2COCC(=O)N2CCC(c3cccnc3)C2)c(C)c1 (stereo not drawn) | 99.7%
COc1cc(C)c(S(=O)(=O)N2CCCCC2COCC(=O)N2CCN(Cc3nc4ccccc4[nH]3)CC2)c(C)c1 (stereo not drawn) | 101%
COc1cc(C)c(S(=O)(=O)N2CCCCC2COCC(=O)Nc2cc(-c3ccc(C)cc3)n[nH]2)c(C)c1 (stereo not drawn) | 11.7%

* * *

# assayTarget: B1R receptor of the rat (Rattus norvegicus, UniProt P97583)
# Construct: host or cells: CHO K1 cells (Chinese hamster ovary), stably transfected
# Sequence (P97583 whole entry): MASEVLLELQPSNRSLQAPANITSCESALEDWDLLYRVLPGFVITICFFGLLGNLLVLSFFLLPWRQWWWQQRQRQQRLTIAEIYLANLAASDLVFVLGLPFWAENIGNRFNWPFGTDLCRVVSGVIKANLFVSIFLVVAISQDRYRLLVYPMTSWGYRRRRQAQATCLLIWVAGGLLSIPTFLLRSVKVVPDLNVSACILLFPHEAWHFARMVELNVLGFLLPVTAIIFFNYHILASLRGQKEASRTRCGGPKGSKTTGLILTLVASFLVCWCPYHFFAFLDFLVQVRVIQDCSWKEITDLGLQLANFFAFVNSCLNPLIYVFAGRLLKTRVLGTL
# testMethodNotes: Functional study on the bradykinin receptor 1 (B1R), FLIPR Ca2+ assay, rB1R cells
# Assay type: cell-based
# experimentalSetup: CHO-K1, test substance 10 μM, agonist Des-Arg9-bradykinin 100 nM, % inhibition compared with the maximum achievable inhibition, read-out: B1R Antagonism, rat [10 μM] % Inhibition
Where a name gives a salt, the structure may show the parent alone.
Quick rule: inhibition at 10 µM of at least 90% means label 1, below that means label 0.

COc1cc(C)c(S(=O)(=O)N2CCCC2COCC(=O)N2CCC(N3CCCC3)CC2)c(C)c1 (stereo not drawn) | label 1
COc1ccc(S(=O)(=O)N2Cc3ccccc3C[C@H]2COCC(=O)N2CCN(CC3CCN(C)CC3)CC2)cc1 [Example 189, dihydrochloride] | label 0
COc1cc(C)c(S(=O)(=O)N2Cc3ccccc3C[C@H]2COCC(=O)N2CCN(C3CCN(C)CC3)CC2)c(C)c1 | label 1
COc1cc(C)c(S(=O)(=O)N2Cc3ccccc3CC2COCC(=O)N2CCN(CC3CCN(C)CC3)CC2)c(C)c1C (stereo not drawn) | label 1
